// reported Ki per item
- tested_system: human A2B receptors (hA2B) (Homo sapiens, UniProt P29275)
- Construct: expressed in transfected cells; host or cells: HEK-293 (HEK-A2B, G418-selected)
- Sequence (P29275 whole entry): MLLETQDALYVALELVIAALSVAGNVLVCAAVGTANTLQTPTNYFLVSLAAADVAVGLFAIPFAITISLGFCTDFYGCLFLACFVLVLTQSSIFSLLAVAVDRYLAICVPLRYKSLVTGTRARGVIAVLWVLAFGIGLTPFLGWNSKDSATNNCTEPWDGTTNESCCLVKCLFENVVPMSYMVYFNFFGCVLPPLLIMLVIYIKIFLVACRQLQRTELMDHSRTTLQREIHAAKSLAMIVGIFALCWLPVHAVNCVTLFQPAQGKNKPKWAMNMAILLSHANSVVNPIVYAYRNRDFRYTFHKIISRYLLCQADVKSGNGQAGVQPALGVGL
- test: Radioligand binding ([125I]ABOPX / [3H]ZM241385) at human A2B receptors expressed in HEK-293 cells
- cond: Table 4; unmarked value, first of two binding assays; read-out: hA2B Ki
Please answer in the form of a number followed by its unit of measurement.

The compound listed as CCCn1c(=O)c2[nH]c(-c3ccc(OCC(=O)NNC(=O)C4=C(C(=O)O)CCC4)cc3)nc2n(CCC)c1=O shows Ki equal to 78.5 nM

Continuing:
The compound listed as CCCn1c(=O)c2[nH]c(-c3ccc(OCC(=O)NN4C(=O)CCC4=O)cc3)nc2n(CCC)c1=O shows Ki equal to 18.6 nM

The compound listed as CCCn1c(=O)c2[nH]c(-c3ccc(OCC(=O)NNC(=O)C4=C(C(=O)O)CCCC4)cc3)nc2n(CCC)c1=O shows Ki equal to 17.3 nM

The compound listed as CCCn1c(=O)c2[nH]c(-c3ccc(OCC(=O)NN4C(=O)C(C)=C(C)C4=O)cc3)nc2n(CCC)c1=O shows Ki equal to 19.4 nM

The compound listed as CCCn1c(=O)c2[nH]c(-c3ccc(OCC(=O)NN4C(=O)CCC(c5ccccc5)C4=O)cc3)nc2n(CCC)c1=O (centres unmarked) shows Ki equal to 3.86 nM

The compound listed as CCCn1c(=O)c2[nH]c(-c3ccc(OCC(=O)NN4C(=O)CCCC4=O)cc3)nc2n(CCC)c1=O shows Ki equal to 22 nM

The compound listed as CCCn1c(=O)c2[nH]c(-c3ccc(OCC(=O)NNC(C)=O)cc3)nc2n(CCC)c1=O shows Ki equal to 65.4 nM

The compound listed as CCCn1c(=O)c2[nH]c(-c3ccc(OCC(=O)NNC(=O)CCC(=O)O)cc3)nc2n(CCC)c1=O shows Ki equal to 116 nM

The compound listed as CCCn1c(=O)c2[nH]c(-c3ccc(OCC(=O)NN4C(=O)CC(O)CC4=O)cc3)nc2n(CCC)c1=O shows Ki equal to 25.7 nM

The compound listed as CCCn1c(=O)c2[nH]c(-c3ccc(OCC(=O)NNC(=O)CNC(=O)CNC(=O)OCc4ccccc4)cc3)nc2n(CCC)c1=O shows Ki equal to 10.8 nM

The compound listed as CCCn1c(=O)[nH]c(=O)c2[nH]c(-c3ccc(OCC(=O)NN4C(=O)C(C)=C(C)C4=O)cc3)nc21 shows Ki equal to 1800 nM

The compound listed as CCCn1c(=O)c2[nH]c(-c3ccc(OCC(=O)NNC(=O)C4CC=CCC4C(=O)O)cc3)nc2n(CCC)c1=O (centres unmarked) shows Ki equal to 51 nM

The compound listed as CCCn1c(=O)c2[nH]c(-c3ccc(OCC(=O)NN4C(=O)C=C(c5ccccc5)C4=O)cc3)nc2n(CCC)c1=O shows Ki equal to 66.7 nM

The compound listed as CCCn1c(=O)c2[nH]c(-c3ccc(OCC(=O)NN4C(=O)c5ccccc5C4=O)cc3)nc2n(CCC)c1=O shows Ki equal to 64.4 nM
